Field: viability. Provide a value for each of the molecules that follow.
# experiment-notes: reducers of endogenous Her2 protein level, primary screen, SKBR3 breast tumor cells, AlphaScreen, ATP viability (AID 461);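 note: percent of carrier control wells set as 100% viability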
# condition-label: 18-24 h, measured here: SKBR3 viability, ATP luminescence, at 10 µM
Hi! Could you send only the number? It should be in %, unit omitted.

Lab note: measured viability of COc1ccc(-c2cc3c(=O)n(CC(=O)NC4CCN(Cc5ccccc5)CC4)ncn3n2)cc1 was 75

Lab note: measured viability of CCOC(=O)c1sc2nc(SCC(=O)NCc3ccco3)n(Cc3ccccc3)c(=O)c2c1C was 90.5

Lab note: measured viability of O=C(CSc1nnnn1C1CCCC1)NCc1ccc2c(c1)OCO2 was 86

Lab note: measured viability of Cc1ccnc(NS(=O)(=O)c2ccc(NC(=O)Cc3cccs3)cc2)n1 was 94.5

Lab note: measured viability of O=C(CCSc1ccccc1)Nc1ccc(S(=O)(=O)N2CCOCC2)cc1 was 102
